Where do these numbers come from? They come from PubChem BioAssay AID720553.

Test system: Potassium voltage-gated channel subfamily H member 2, brain isoform KCNH2 3.1 (human)
Assay: qHTS for Inhibitors of KCHN2 3.1: Mutant qHTS; further: on the % scale 0 is the no-effect control and ±100 the full control effect
Details: U2OS KCNH2 3.1, thallium flux FluxOr; active compounds read low
Hit rate of the full screen: of about 340,000 compounds, about 3,300 (0.97%) were called active. What follows is part of a selection rich in actives, with near analogues and random picks from the rest.
OBSERVED PROPERTY: activity change (%)
Record the value in %, omitting the unit from your answer.

CC(=NNC(N)=O)C1CC2CCC1CC2 (stereo not drawn): 0.306
COc1ccc(-c2csc(Nc3cccc(C)n3)n2)cc1OC: -0.0615
COc1ccc(S(=O)(=O)N(C)C)cc1NC(=O)COC(=O)c1n[nH]c2ccccc12: 9.12
Cc1cc2cc3n(c2nn1)N=C(Cl)CC3: -0.335
COc1ccc(OC)c(NC(=O)C2CCCN2S(=O)(=O)c2ccc3c(c2)CC(C)N3C(C)=O)c1 (stereo not drawn): 12.8

Measured activity change of CCCCCCNC(=O)O[C@]12C[C@@H](C(=O)OC)[C@@H](C(=O)OC)C[C@@]1(O)CN(S(=O)(=O)c1ccc(C)cc1)C2 : -9.12

Measured activity change of C[C@@H]1CN([C@@H](C)CO)C(=O)CCCn2nncc2CO[C@H]1CN(C)C(=O)Nc1ccc(C(F)(F)F)cc1 : -12.6

Measured activity change of O=C(C1CCCO1)N1CCN(C(=O)C23CC4CC(CC(C4)C2)C3)CC1 (stereo not drawn) : 3.39

###

System: Potassium voltage-gated channel subfamily H member 2, brain isoform KCNH2 3.1 (human)
Experiment: qHTS for Inhibitors of KCHN2 3.1: Mutant qHTS; further: on the % scale 0 is the no-effect control and ±100 the full control effect
Conditions: U2OS KCNH2 3.1, thallium flux FluxOr
About 3,300 (0.97%) of roughly 340,000 compounds were called active.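 Rule for the calls: active = maximum activity change below -70%; inconclusive = maximum activity change from -70% to -50%; inactive = maximum activity change above -50%.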 The sample as a whole holds a higher share of actives than the screen did.
Reply using exactly one outcome from active, inactive

C=CCn1c(SCC(=O)NC)nnc1C12CC3CC(CC(C3)C1)C2: active
Cc1ccc(C(=O)OCC(=O)NC2CCCCCCC2)cc1C: inactive
CC1=C(C(=O)N2CCOCC2)CC(CC(=O)NCc2cccc3ccccc23)C(=O)N1CCC1=CCCCC1 (centres undefined): inactive

Turning to the following molecule.
Enquiry: In this assay, the call recorded for C[C@H]1CCC(=O)N([C@H](CSc2ccccc2)Cc2ccccc2)CC1 was what?
Return: inactive

###

System: Potassium voltage-gated channel subfamily H member 2, brain isoform KCNH2 3.1 (human)
Experiment: qHTS for Inhibitors of KCHN2 3.1: Mutant qHTS; further: on the % scale 0 is the no-effect control and ±100 the full control effect
Conditions: U2OS KCNH2 3.1, thallium flux FluxOr; active compounds read low
Among all 340,000 compounds or so, about 3,300 (0.97%) were called active. Shown is part of a subset that was picked to be rich in actives.
Lab note: cut-off is 10%. Strictly less in activity change is fulfilled. Exactly 10% or more is not fulfilled.

Here's what some known entries look like.
CCOC(=O)c1cc(-c2sc(NC(=O)c3ccccc3)nc2C)n(CCO)n1: fulfilled
CCn1c(SCC(=O)N2CCCC2=O)nc2ccccc21: fulfilled
CN1CCn2cnc(C(=O)NCC(=O)OC(C)(C)C)c2C1=O: fulfilled
COCCCNC(=O)COc1cc(C)c(Cl)c(C)c1: not fulfilled

Turning to the following compound.
Enquiry: Confirm or reject: activity change of CCOc1cc(/C=N/NC(=O)c2c(C)nc3ccc(Cl)cn23)ccc1O lies strictly below 10%
Return: fulfilled

###

# key: entry, value: activity change
Tested on: Potassium voltage-gated channel subfamily H member 2, brain isoform KCNH2 3.1 (human)
Assay: qHTS for Inhibitors of KCHN2 3.1: Mutant qHTS; further: on the % scale 0 is the no-effect control and ±100 the full control effect
Conditions: U2OS KCNH2 3.1, thallium flux FluxOr; active compounds read low
The whole screen tested about 340,000 compounds, of which about 3,300 (0.97%) were called active. For the sample, actives were picked, then their nearest neighbours and some compounds at random.
Record the value in %, omitting the unit from your answer.

These recorded examples may help you get a feel for the data.
COCOCCn1cc(CN2CCS(=O)(=O)N(Cc3ccc(-c4ccc(OC)cc4)cc3)C(CC(C)C)C2=O)nn1 (configuration not stated): -1.8
COc1ccc(NC(=O)c2sc3nc(C)nc(N4CCN(c5ccccn5)CC4)c3c2C)c(OC)c1: -30.8
CCCc1ccc(OCC(O)CN2CCN(C(=O)OCC)CC2)cc1 (configuration not stated): -6.68
O=[N+]([O-])c1cccc(S(=O)(=O)N2CCCCCC2)c1: -16.9

Measured activity change of O=C(Nc1cc(F)ccc1F)c1ccc2c(=O)n3c(nc2c1)CCC3 : -2.54

Measured activity change of O=C(C(c1ccccc1)c1ccccc1)N1CCN(CC(O)COc2ccccc2)CC1 (configuration not stated) : -70.2

Measured activity change of COc1ccc([C@H]2C[C@@H](n3cc(COC(=O)c4ccccc4)nn3)[C@H](O)CN2C(=O)c2cccs2)cc1 : 5.99

Measured activity change of CC1(C)OC(=O)C2=C(CC(c3ccccc3)OC2CCc2ccccc2)O1 (configuration not stated) : -4.16

Measured activity change of COC(=O)c1ccc(/C=N/NC(=O)C(=O)N2CCCCCC2)cc1 : 2.79

###

Test system: Potassium voltage-gated channel subfamily H member 2, brain isoform KCNH2 3.1 (human)
Experiment: qHTS for Inhibitors of KCHN2 3.1: Mutant qHTS; further: on the % scale 0 is the no-effect control and ±100 the full control effect
Settings: U2OS KCNH2 3.1, thallium flux FluxOr
Screen size: about 340,000 compounds; about 3,300 (0.97%) were called active.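 Rule for the calls: active = maximum activity change below -70%; inconclusive = maximum activity change from -70% to -50%; inactive = maximum activity change above -50%.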 The entries come from a sample that favours actives as a whole.
Reply using exactly one outcome from active, inactive

Here's what some known entries look like.
CN(CC#CCC(c1ccccc1)c1ccccc1)C(C)(C)C: active
C[C@H]1CN([C@@H](C)CO)C(=O)CCCn2cc(nn2)CO[C@@H]1CN(C)S(=O)(=O)c1ccc(-c2ccccc2)cc1: inactive
O=C(Cc1cccs1)Nc1nnc(C2CC2)s1: active
CSCCC(NC(=O)COc1ccccc1)C(=O)OCCOc1ccc(Br)cc1 (stereo unspecified): inactive
O=C(NCCOc1ccccc1)N1[C@H]2CC[C@@H]1C=C(c1ccc(F)cc1OCc1ccccc1)C2: inactive
CC(C)c1cc(C(=O)N(C)C2CCCN(Cc3ccccc3F)C2)n(C)n1 (stereo unspecified): inactive

Enquiry: In this assay, the call recorded for O=C(Cc1cccs1)Nc1nnc(SCc2ccc(F)cc2)s1 was what?
Return: inactive

Enquiry: In this assay, the call recorded for C[C@H](CO)N1C[C@H](C)[C@H](CN(C)C(=O)Nc2ccc3c(c2)OCO3)Oc2ncc(Br)cc2C1=O was what?
Return: inactive

Enquiry: In this assay, the call recorded for CCOC(=O)N1CCN(C(=O)C2CCN(S(=O)(=O)c3cc(Cl)ccc3OCC)CC2)CC1 was what?
Return: inactive

Enquiry: In this assay, the call recorded for CC(=O)c1ccc(OCC(O)CN2CCN(S(=O)(=O)c3cccc(Br)c3)CC2)cc1 (stereo unspecified) was what?
Return: inactive

Enquiry: In this assay, the call recorded for CSCCC(NC(=O)COc1ccccc1)C(=O)OCCOc1ccc(F)cc1 (stereo unspecified) was what?
Return: inactive

Enquiry: In this assay, the call recorded for CCC(=O)c1ccc(OCC(O)CN2CCN(c3cccc(C(F)(F)F)c3)CC2)cc1 (stereo unspecified) was what?
Return: active

Enquiry: In this assay, the call recorded for COc1ccc(-c2c(C#N)cnc(C)c2C)c(O)c1OC was what?
Return: inactive

Enquiry: In this assay, the call recorded for O=C(COC(=O)Cc1ccc(Cl)cc1Cl)NCc1ccco1 was what?
Return: inactive

Enquiry: In this assay, the call recorded for CSc1ncnc2c1ncn2CCCNCC(C)c1ccccc1 (stereo unspecified) was what?
Return: inactive

Enquiry: In this assay, the call recorded for CCOC(=O)C(=Cc1ccccc1)C(=O)c1ccccc1 was what?
Return: inactive

###

Test system: Potassium voltage-gated channel subfamily H member 2, brain isoform KCNH2 3.1 (human)
Experiment: qHTS for Inhibitors of KCHN2 3.1: Mutant qHTS; further: on the % scale 0 is the no-effect control and ±100 the full control effect
Details: U2OS KCNH2 3.1, thallium flux FluxOr; active compounds read low
Procedure: Many antipsychotic drugs that inhibit the neurotransmitter dopamine also bind to hERG1 channel which might help explain their antipsychotic activity but also produces cardiac side effects. […] U2OS cells were resuspended in cell media containing 10% fetal calf serum (FCS) at a concentration of 2 million cells / mL. […] A stimulation buffer was added to the plate and the second kinetic read (2 min) was obtained. […]
Hit rate of the full screen: of about 340,000 compounds, about 3,300 (0.97%) were called active. Only a selection was taken, and actives are over-represented in it overall.
# key: entry, value: activity change
Record the value in %, omitting the unit from your answer.

These recorded examples may help you get a feel for the data.
CCOC(=O)Cn1c(-c2cccnc2Cl)nc2ccccc21: -86.5
O=C(COc1ccc(S(=O)(=O)N2CCCC2)cc1[N+](=O)[O-])N1CCCCC1: -5.01
O=C1NC(Cc2ccccc2)c2nc3ccc(Br)cc3c(=O)n2-c2cc3ccccc3cc21 (stereo unspecified): -16.2
CCn1c(-c2cccnc2Cl)nc2cc(C)c(C)cc21: 1.97
COc1ccc(S(=O)(=O)NCC(c2ccc(C)cc2)N2CCN(C)CC2)cc1OC (stereo unspecified): -2.06

Proceeding to the next compound to report its activity change.
Measured activity change of N#CC1(Nc2ccc3c4c(cccc24)CC3)CCCCC1 : 0.638
